# Baf3-mPRLR proliferation IC50 annotations
TARGET_OF_ASSAY: T1, mouse PRLR on Baf3-mPRLR cells (mouse, UniProt Q08501 20-608)
T1 sequence (looked up): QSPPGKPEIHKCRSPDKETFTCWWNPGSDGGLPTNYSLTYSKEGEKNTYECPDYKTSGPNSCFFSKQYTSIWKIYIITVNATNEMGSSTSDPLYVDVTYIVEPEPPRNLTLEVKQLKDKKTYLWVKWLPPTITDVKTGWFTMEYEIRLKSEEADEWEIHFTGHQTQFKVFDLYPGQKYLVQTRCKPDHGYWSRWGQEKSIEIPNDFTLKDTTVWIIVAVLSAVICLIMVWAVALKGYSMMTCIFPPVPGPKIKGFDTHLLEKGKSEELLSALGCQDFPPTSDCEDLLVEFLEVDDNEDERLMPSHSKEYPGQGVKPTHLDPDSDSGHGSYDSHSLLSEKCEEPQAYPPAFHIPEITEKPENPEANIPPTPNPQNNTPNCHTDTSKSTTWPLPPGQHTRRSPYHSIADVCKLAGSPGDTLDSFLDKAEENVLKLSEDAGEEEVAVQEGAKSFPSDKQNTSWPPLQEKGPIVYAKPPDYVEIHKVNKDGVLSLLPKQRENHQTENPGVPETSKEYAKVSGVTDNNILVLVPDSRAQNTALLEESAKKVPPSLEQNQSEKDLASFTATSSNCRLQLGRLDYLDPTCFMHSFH
METHOD_SUMMARY: cell-based or functional assay
RECORDED_METRIC: Baf3-mPRLR proliferation IC50 (µg/mL)

BINDER	UNITS_TEXT	RELATION_SIGN	MEASURED_VALUE
Ab44 (antibody, human IgG1, kappa, V domains shown, humanized from Ab8; G1; also called Ab3 HC.1 and Ab3 LC.1) VH: EVQLVQSGAEVKKPGASVKVSCKASGYTFTDYNIHWVRQAPGQGLEWMGYIYPNNDGTGYNQKFKSRVTMTTDTSTSTAYMELRSLRSDDTAVYYCARGDGNYVGDMDYWGQGTTVTVSS VL: DIQMTQSPSSLSASVGDRVTITCRASENIYSYLAWYQQKPGKAPKLLIYNAKTLAEGVPSRFSGSGSGTDFTLTISSLQPEDFATYYCQHHYATPFTFGQGTKLEIKR	µg/mL	>	30
Ab7 (antibody, V domains shown, murine monoclonal, isotype G1; also called murine Ab7) VH: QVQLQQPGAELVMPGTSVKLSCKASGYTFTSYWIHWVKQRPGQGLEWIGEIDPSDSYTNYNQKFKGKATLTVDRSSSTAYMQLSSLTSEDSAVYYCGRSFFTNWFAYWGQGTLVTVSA VL: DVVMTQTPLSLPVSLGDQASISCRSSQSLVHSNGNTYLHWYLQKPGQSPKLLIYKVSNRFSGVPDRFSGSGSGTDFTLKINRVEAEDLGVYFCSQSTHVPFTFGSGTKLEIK	µg/mL	=	3.55
Ab36 (antibody, human IgG1, kappa, V domains shown, humanized from Ab7; G1; also called Ab4 HC.1 and Ab4 LC.1a) VH: EVQLVQSGAEVKKPGSSVKVSCKASGYTFTSYWIHWVRQAPGQGLEWMGEIDPSDSYTNYNQKFKGRVTITADKSTSTAYMELSSLRSEDTAVYYCARSFFTNWFAYWGQGTLVTVSS VL: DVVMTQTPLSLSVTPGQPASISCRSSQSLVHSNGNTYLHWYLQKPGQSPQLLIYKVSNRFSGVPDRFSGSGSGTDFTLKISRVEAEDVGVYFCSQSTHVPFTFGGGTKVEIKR	µg/mL	>	30
chAb7 (antibody, human IgG1, kappa, V domains shown, chimeric, murine variable and human G1/kappa constant regions) VH: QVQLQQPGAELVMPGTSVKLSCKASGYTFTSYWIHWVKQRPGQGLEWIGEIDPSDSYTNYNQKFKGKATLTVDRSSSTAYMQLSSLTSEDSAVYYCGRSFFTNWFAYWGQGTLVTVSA VL: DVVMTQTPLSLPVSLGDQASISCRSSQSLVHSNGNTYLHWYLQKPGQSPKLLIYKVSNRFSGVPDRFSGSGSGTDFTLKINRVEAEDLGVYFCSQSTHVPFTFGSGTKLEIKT	µg/mL	=	3.6
Ab21 (antibody, human IgG1, kappa, V domains shown, humanized from Ab6; G1; also called Ab1 HC.1a and Ab1 LC.2a) VH: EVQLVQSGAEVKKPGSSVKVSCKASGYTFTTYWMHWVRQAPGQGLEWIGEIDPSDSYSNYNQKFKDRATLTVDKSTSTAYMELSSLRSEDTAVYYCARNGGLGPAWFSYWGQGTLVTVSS VL: EIVMTQSPATLSVSPGERATLSCKASQYVGTAVAWYQQKPGQSPRLLIYSASNRYTGVPARFSDSGSGTEFTLTISSLQSEDFAVYFCQQYSSYPWTFGGGTKVEIKR	µg/mL	>	30
